// data source = patent US10752588B2

# Assay procedure: Plasma stability, mouse
Endpoint label: Plasma Stability: % remaining after 5 hours (%)
The reply should be a number in %, with the unit left off.

As a guide, the following entries are already answered.
O=C(NC(c1ccccn1)c1ccccc1F)C1CCN(CCOc2ccccc2)CC1 (centres unmarked)	95
O=C(NC(c1ccncc1)c1ccc(Cl)cc1)C1CCN(CCOc2ccccc2)CC1 (centres unmarked)	95
O=C(NC(c1ccc(Cl)cc1)c1ccccn1)C1CCN(CCOc2ccccc2)CC1 (centres unmarked)	93.4
O=C(NC(c1ccc(Cl)cc1)c1ccccn1)C1CCN(CCn2ccc(=O)cc2)CC1 (centres unmarked)	89.5
O=C(NC(c1ccccc1)c1ccc(F)cc1)C1CCN(CCOc2ccccc2)CC1 (centres unmarked)	91

In: Which Plasma Stability: % remaining after 5 hours value is on record for O=C(NC(c1ccccn1)C1CCCCC1)C1CCN(CCOc2ccccc2)CC1 (centres unmarked) ?
Out: 98

In: Further, for O=C(NC(c1ccccc1)c1ccc(Cl)cc1)C1CCN(CCOc2ccccc2)CC1 (centres unmarked) ?
Out: 93

In: Further, for O=C(NC(c1ccc(F)cc1)c1ccc(Cl)cc1)C1CCN(CCOc2ccccc2)CC1 (centres unmarked) ?
Out: 100

In: Further, for O=C(NC(c1ccc(F)cc1)c1ccccn1)C1CCN(CCOc2ccccc2F)CC1 (centres unmarked) ?
Out: 100

In: Further, for O=C(NC(c1cccc(Cl)c1)c1ccccn1)C1CCN(CCOc2ccccc2)CC1 (centres unmarked) ?
Out: 100

In: Further, for O=C(NC(c1ccc(Cl)cc1)c1ccccc1F)C1CCN(CCOc2ccccc2)CC1 (centres unmarked) ?
Out: 100

In: Further, for O=C(NC(c1ccc(Cl)cc1)c1ccccn1)C1CCN(CCOc2ccc(C(F)(F)F)cc2)CC1 (centres unmarked) ?
Out: 100
